target_of_assay: HIV-1 Env of isolate MGRM-D-021 (subtype D) (HIV-1)
assay_remarks: cell-based or functional assay
measurement_type: IC50 (neutralization) (µg/mL)
Report the figure in µg/mL without appending any unit label.

Briefly, IC50 (neutralization) measured for PGT-128 (antibody, V domains shown) VH: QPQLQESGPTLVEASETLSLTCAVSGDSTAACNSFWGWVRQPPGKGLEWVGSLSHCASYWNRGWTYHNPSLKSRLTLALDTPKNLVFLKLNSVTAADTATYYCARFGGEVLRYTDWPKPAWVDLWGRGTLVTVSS VL: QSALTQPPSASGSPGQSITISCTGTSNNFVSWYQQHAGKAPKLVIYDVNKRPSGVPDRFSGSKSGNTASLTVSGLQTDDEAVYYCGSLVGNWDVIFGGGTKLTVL : 0.014
